- Assay summary: Hoechst 33342 nuclear staining;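 further: apoptotic nuclei scored 0 none 1 weak under 50% of cells 2 strong over 50% of cells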
- Assay type: cell-based
- Condition info: Jurkat cells, conc 3
Recorded metric: Hoechst 33342 nuclear staining score, Jurkat

May I ask what Hoechst 33342 nuclear staining score, Jurkat has been recorded for COc1cc(-c2cc(-c3cccnc3)cn2S(=O)(=O)c2ccc(C(C)(C)C)cc2)cc(OC)c1OC [Example 83] ?
0

====

For each entry below, report its Hoechst 33342 nuclear staining score, HeLa value.
- Assay summary: Hoechst 33342 nuclear staining;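 further: apoptotic nuclei scored 0 none 1 weak under 50% of cells 2 strong over 50% of cells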
- Type: cell-based
- Condition info: HeLa cells, conc 3
Keep it simple and answer with nothing but the number.

May I ask what Hoechst 33342 nuclear staining score, HeLa has been recorded for COc1cc(-c2cc(-c3cccnc3)cn2S(=O)(=O)c2ccc(F)cc2)cc(OC)c1OC ?
0

May I ask what Hoechst 33342 nuclear staining score, HeLa has been recorded for COc1cc(-c2cc(-c3cccnc3)cn2S(=O)(=O)c2ccc(N)cc2)cc(OC)c1OC ?
0
